These measurements were taken from patent US20190119282A1.

Below, each entry is listed with its recorded IC50.
# SYSTEM TESTED: PAR2 (HT-29 cells, trypsin activation) (Homo sapiens)
# Construct: host or cells: HT-29 cells
# Sequence (P55085 26-397): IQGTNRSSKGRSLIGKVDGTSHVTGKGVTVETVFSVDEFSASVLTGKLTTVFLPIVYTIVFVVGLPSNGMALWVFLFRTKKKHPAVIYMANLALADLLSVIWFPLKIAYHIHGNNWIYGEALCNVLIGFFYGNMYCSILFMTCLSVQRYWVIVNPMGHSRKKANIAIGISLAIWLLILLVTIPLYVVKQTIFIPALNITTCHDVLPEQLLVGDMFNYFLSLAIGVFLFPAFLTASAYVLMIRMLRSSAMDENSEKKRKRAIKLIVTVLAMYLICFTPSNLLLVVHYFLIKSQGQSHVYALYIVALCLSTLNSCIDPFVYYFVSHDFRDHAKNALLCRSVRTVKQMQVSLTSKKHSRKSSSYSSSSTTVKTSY
# PROTOCOL DETAILS: Ca FLIPR TETRA assay, ANTAGONIST mode, stimulation with 3.1 U/mL trypsin
# Assay type: cell-based
# EXPERIMENTAL CONTEXT: HT-29 cells, antagonist mode, stimulation with 3.1 U/mL trypsin
MEASURE NAME: IC50 (nM)

                                    compound  measure_name  recorded_result
 0  CC(C)(C)c1cc(-c2ccc(F)cc2)nn2cc(C(=O)N3CCN(CC#N)C(=O)C3(C)C)nc12          IC50                2
 1  CC(C)(C)c1cc(-c2ccc(F)cc2)nn2cc(C(=O)N3CCN(C(=O)c4ccccn4)CC3(C)C)nc12          IC50              1.4
 2  Cc1cc(-c2cc(C(C)C)c3nc(C(=O)N4CCN(C)C(=O)C4(C)C)cn3n2)ccc1F          IC50               14
 3  CC(C)c1cc(-c2ccc(C(F)F)cc2)nn2cc(C(=O)N3CCN(C(=O)c4ccn[nH]4)CC3(C)C)nc12          IC50              9.4
 4  Cc1n[nH]c(C(=O)N2CCN(C(=O)c3cn4nc(-c5ccc(F)c(C)c5)cc(C(C)(C)C)c4n3)C(C)(C)C2)n1          IC50              1.3
 5  Cc1cc(-c2cc(C(C)C)c3nc(C(=O)N4CCN(C(=O)c5ccccn5)CC4(C)C)cn3n2)ccc1F          IC50             10.5
 6  CC(C)(C)c1cc(-c2ccc(F)cc2)nn2cc(C(=O)N3CCN(C(=O)C(C)(N)C(F)(F)F)CC3(C)C)nc12 (stereo not drawn)          IC50              2.2
 7  Cc1nc(N2CCN(C(=O)c3cn4nc(-c5ccc(C)c(F)c5)cc(C(C)(C)C)c4n3)C(C)(C)C2=O)c[nH]1          IC50              7.3
 8  CC(C)(C)c1cc(-c2ccc(Cl)c(F)c2)nn2cc(C(=O)N3CCN(C(=O)c4ccccn4)CC3(C)C)nc12          IC50              0.9
 9  CC(C)c1cc(-c2ccc(F)cc2)nn2cc(C(=O)N3CCN(C(=O)c4ncccn4)CC3(C)C)nc12          IC50             55.5
10  Cc1cccc(-c2cc(C(C)(C)C)c3nc(C(=O)N4CCN(C(=O)c5c[nH]c(C)n5)CC4(C)C)cn3n2)c1          IC50              5.1
11  C[C@@H]1CN(c2cc(-c3ccc(F)cc3)nn3cc(C(=O)N4CCNC(=O)C4(C)C)nc23)C[C@H](C)O1          IC50             40.3
12  CC(C)c1cc(-c2ccc(C(F)(F)F)c(F)c2)nn2cc(C(=O)N3CCN(C(=O)c4ccncn4)CC3(C)C)nc12          IC50              2.8
13  CC(C)c1cc(-c2cccc(F)c2)nn2cc(C(=O)N3CCNC(=O)C3(C)C)nc12          IC50               60
14  Cc1cc(-c2cc(C(C)C)c3nc(C(=O)N4CCN(C(=O)c5nc[nH]n5)CC4(C)C)cn3n2)ccc1F          IC50              8.2
15  CC(C)c1cc(-c2ccc(F)c(F)c2)nn2cc(C(=O)N3CCN(C(=O)[C@H]4C[C@@](O)(C(F)(F)F)C4)CC3(C)C)nc12          IC50              5.2
16  Cc1cc(C(=O)N2CCN(C(=O)c3cn4nc(-c5ccc(F)cc5)cc(C(C)(C)C)c4n3)C(C)(C)C2)[nH]n1          IC50              0.3
17  CC1(C)CN(C(=O)[C@H]2CC[C@@H](C(=O)O)CC2)CCN1C(=O)c1cn2nc(-c3ccc(F)cc3)cc(-c3ccc(F)cc3)c2n1          IC50              1.7
18  Cc1cc(-c2cc(C(C)C)c3nc(C(=O)N4CCN(C(=O)[C@H]5C[C@](O)(C(F)(F)F)C5)CC4(C)C)cn3n2)ccc1F          IC50              1.1
19  Cc1nc(N2CCN(C(=O)c3cn4nc(-c5ccc(F)c(C)c5)cc(C(C)C)c4n3)C(C)(C)C2=O)c[nH]1          IC50               25
20  CC(C)(C)c1cc(C2CCC(F)(F)CC2)nn2cc(C(=O)N3CCN(c4c[nH]cn4)C(=O)C3(C)C)nc12          IC50             23.8
